Every entry's value here was drawn from ChEMBL document CHEMBL4004838.

Would you mind telling me the reported IC50 of each entry?
# System: LNCaP
# RUN_DESCRIPTION: Cytotoxicity against human LNCAP cells assessed as cell viability after 72 hrs by MTT assay
# Type: functional, cell-based
Give your result in µg/mL as a bare value.

Notebook: c1ccc2c3c([nH]c2c1)C(c1ccc(C2NCCc4c2[nH]c2ccccc42)cc1)NCC3 (racemic) , IC50 read as 5.52

Notebook: c1ccc2c3c([nH]c2c1)[C@H](c1ccc([C@@H]2NCCc4c2[nH]c2ccccc42)cc1)NCC3 , IC50 read as 13.3

Notebook: COc1cccc2c1C(=O)c1c(O)c3c(c(O)c1C2=O)C[C@@](O)(C(=O)CO)C[C@@H]3O[C@H]1C[C@H](N)[C@H](O)[C@H](C)O1 , IC50 read as 5.28

Notebook: c1ccc2c3c([nH]c2c1)[C@@H](c1ccc([C@H]2NCCc4c2[nH]c2ccccc42)cc1)NCC3 , IC50 read as 15.2
